# assay: NCI Yeast Anticancer Drug Screen. Data for the rad50 strain (AID 155);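 note: 0% = growth of vehicle-only cultures of the same strain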
# condition_summary: S. cerevisiae rad50 strain growth inhibition; at 50.0 µM; hits give high values
This is part of a sample that, as a whole, favours compounds with a hit. Of some 79,000 tested, about 15% had one in any assay.
Can you tell me growth inhibition for the items I'm about to list?
Give the quantity in %, number only.

Lab note: measured growth inhibition of CCC[CH2][Sn]([CH2]CCC)([O]C(=O)c1cc(F)cc(F)c1)[O]C(=O)c1cc(F)cc(F)c1 was 22.4

Form field growth inhibition, entry C[Si](C)(c1ccccc1)C1CC(=O)CC(=O)C1 : 49.9

O=C1CSC(c2cccc([N+](=O)[O-])c2)N1c1ccc(-c2ccc(-n3c(-c4ccccc4)nc4ccccc4c3=O)cc2)cc1 (stereo unspecified) has a reported growth inhibition of 25.1

growth inhibition recorded for this compound, O=Cc1ccc(O)c2ccccc12 , is 63.2

Data point: CCOC(=O)/C(=C\c1ccc(-c2ccccc2)cc1)C(C)=O ; growth inhibition = 67.1

The value of growth inhibition measured for the compound Cc1cccc2c1C1OC(=O)C3CCC=C2C31 (stereo unspecified) turned out to be 30.4

Value of measured growth inhibition for the entry Cc1ccc(S(=O)(=O)NC(=O)CC2CCCCC2)cc1 : 91.2

The recorded growth inhibition for entry Oc1cc2ccccc2c2ccccc12 equals 99.2

Reported growth inhibition for Cn1c(N)c(N=Nc2ccc(S(N)(=O)=O)cc2)c(=O)n(C)c1=O was -23.8

// field: growth inhibition; key: Cc1[nH]c2ccccc2c1/C=C1\C(=O)C2CCC1C2 (stereo unspecified) ; value = 95.4

So for NC1CCCCC1N.O=S(=O)([O-])CCCN1CCN(CCO)CC1.O=S(=O)([O-])CCCN1CCN(CCO)CC1.[Pt+4] , the logged growth inhibition turned out to be -8.45

* * *

Could you please report measured growth inhibition for the items listed next?
# assay: NCI Yeast Anticancer Drug Screen. Data for the bub3 strain (AID 167)
# condition_summary: S. cerevisiae bub3 mutant strain, at 5.0 µM (retest, dose inferred, filed as 0.5), hits give high values
# Experimental: Growth inhibition of yeast strains with defined genetic alterations is measured as a screen for potential anti-cancer activity. Selected strains with alterations in DNA damage repair or cell cycle control were exposed to compounds and growth inhibition was measured relative to vehicle treated controls. The strain used in this assay is bub3
This is part of a sample that, as a whole, favours compounds with a hit. Of some 79,000 tested, about 15% had one in any assay.
Reply numerically in %, unit not repeated.

Documented growth inhibition of O[C@H]1[C@H]2c3cc4c(cc3CN3CCC(=C[C@@H]1O)[C@H]23)OCO4 : 0

The reported value for NCCCSc1ccc(Br)cc1 in terms of growth inhibition is -22

growth inhibition recorded for this molecule, Clc1ccc2oc(N3CCCCC3)nc2c1 , is 8

Field growth inhibition (entry CC1=C(C(=O)Nc2ccccc2C)C(c2ccc(Cl)c(Cl)c2)C(C(=O)Nc2ccccc2C)=C(C)N1 ) reads -19

Consider CCN(CC)CCCNc1c(O)cc(C)c2sc3ccccc3c(=O)c12 . Its measured growth inhibition is 14

Entry C[C@H](CCC(=O)O)[C@H]1CC[C@H]2[C@@H]3[C@@H](O)C[C@@H]4C[C@H](O)CC[C@]4(C)[C@H]3CC[C@]12C ; growth inhibition = 21

Note to self: growth inhibition recorded for N#C/C(=C\c1c(Cl)cccc1Cl)c1nc2ccccc2[nH]1 was 35

According to the records, this molecule CC1=NC(=Cc2ccc(Cl)cc2)C(=O)N1n1c(-c2ccccc2)nc2ccccc2c1=O displays growth inhibition of -6

Measured growth inhibition, CC1CC(c2ccccc2)CC(C)N1c1ccc2ccccc2c1 (stereo not given) : 0

Just so you know, measured growth inhibition for O=C1c2ccccc2NC(=O)C2C1C(c1ccccc1)CC2(O)c1ccccc1 (stereo not given) came out at -27

Value of growth inhibition reported for the molecule CC(C)(C)C(=O)CC(=O)C(F)(F)C(F)(F)C(F)(F)F.CC(C)(C)C(=O)CC(=O)C(F)(F)C(F)(F)C(F)(F)F.CC(C)(C)C(=O)CC(=O)C(F)(F)C(F)(F)C(F)(F)F.[Fe] is -1

Notebook: C[n+]1c(-c2ccc(/C=C/C=N\NC(=O)c3ccc(C(=O)N/N=C\C=C\c4ccc(-c5cn6ccccc6[n+]5C)cc4)cc3)cc2)cn2ccccc21 , growth inhibition read as 36

Field growth inhibition (entry Cc1ccc(NS(=O)(=O)c2ccc(C)cc2)cc1 ) reads -6

For this molecule ( C[n+]1c(-c2ccc(/C=N/NC(=O)C(=O)N/N=C/c3ccc(-c4cn5ccccc5[n+]4C)cc3)cc2)cn2ccccc21 ), measured growth inhibition is 64

GET /value?item= COc1cc(NS(C)(=O)=O)ccc1Nc1c2ccccc2nc2ccccc12 &field=growth inhibition returns 14

Lookup result for NC(N)=N/N=C/c1ccc([N+](=O)[O-])o1 ; measured growth inhibition: 6

For O=C(CSC1=NNC2(C(=O)N1)c1ccccc1-c1ccccc12)NC(=S)Nc1ccccc1 the molecule record lists growth inhibition as -16

Form: molecule = Cc1ccc(C(=Nc2ccccc2)N=P(c2ccccc2)(c2ccccc2)c2ccccc2)cc1 ; growth inhibition = 45

Value of growth inhibition reported for the molecule CNC(=O)OC(C)CN1c2ccccc2Sc2ccccc21 (stereo not given) is 1

Just so you know, measured growth inhibition for O=C(CC1(O)C(=O)Nc2c(Cl)cc(Cl)cc21)c1ccc(Cl)cc1 (stereo not given) came out at -3

* * *

# assay: NCI Yeast Anticancer Drug Screen. Data for the cln2 rad14 strain (AID 165);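 note: 0% = growth equal to vehicle treated cultures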
# condition_summary: S. cerevisiae cln2 rad14 strain, at 5.0 µM (retest, dose inferred, filed as 0.5), hits give high values
About 79,000 compounds went through this panel and 15% of them were active in at least one assay; those are over-represented in the sample as a whole.
For each entry below, report its growth inhibition value.
Reply numerically in %, unit not repeated.

So, N#C/C=C(\c1ccccc1)c1c[nH]c2ccccc12 ? Its growth inhibition was -58

Entry under test: CCC(CC)COC(=O)c1ccc(O)c(O)c1 . Its growth inhibition was -14

Looking up O=C(CCSCCC(=O)NNc1ccccc1)NNc1ccccc1 , I see its growth inhibition listed as 6

// O=[N+]([O-])c1cc(Cl)c(Cl)cc1NS(=O)(=O)c1ccccc1 : growth inhibition value = 25

Quick note, growth inhibition for C[Si](C)(c1ccccc1)C1CC(=O)CC(=O)C1 landed at 29

growth inhibition recorded for this molecule, Clc1ccc(-c2nc3ccc(Cl)cc3[nH]2)cc1 , is 0

* * *

# assay: NCI Yeast Anticancer Drug Screen. Data for the mlh1 rad18 strain (AID 175)
# condition_summary: S. cerevisiae mlh1 rad18 strain growth inhibition; at 50.0 µM
About 79,000 compounds went through this panel and 15% of them were active in at least one assay; those are over-represented in the sample as a whole. The source made the active and inactive calls. No stated cut-off is given here; in the data, active means growth inhibition above about 70%; inactive means the rest.
I would appreciate it if you answered using one of these outcomes: active, inactive

Query :: Could you check what this test reported for Cn1c(C(C)(C)OC(=O)Oc2ccccc2)cnc1[N+](=O)[O-] ?
Result :: inactive

Query :: Identify the outcome logged in this assay for the compound shown: CC(C)(c1ccccc1)c1ccc2[nH]c(C(C)(C)c3ccccc3)c(CC(=O)O)c2c1
Result :: active

Query :: # outcome recorded in this test, key = COc1ccc(C(c2cc3c(cc2O)OCO3)N2CCOCC2)cc1OC (stereo not drawn)
Result :: active

Query :: // return assay outcome for C[n+]1c(-c2ccc(/C=C/C=N\NC(=O)c3ccc(C(=O)N/N=C\C=C\c4ccc(-c5cn6ccccc6[n+]5C)cc4)cc3)cc2)cn2ccccc21
Result :: active

Query :: Entry Oc1c(Cl)cc(Br)cc1Cl : call = ?
Result :: active

Query :: Record request — test call for O=C(CNC(=O)OCc1ccccc1)Oc1ccc([N+](=O)[O-])cc1
Result :: active

Query :: Which outcome was entered for the compound COc1ccc(C(=O)C(CCC(=O)/C=C/c2ccccc2)S(C)(=O)=O)cc1 (stereo not drawn) in this test?
Result :: inactive

Query :: What classification did CC(=O)Oc1cc2c(cc1OC(C)=O)OCC(c1ccccc1)C2 (stereo not drawn) end up with in this test?
Result :: inactive

Query :: Status in this test for CN(C)CC(C)(C)/C(=N\Nc1ccccc1)c1ccccc1 ?
Result :: inactive

Query :: // outcome(item) with item = Cn1cc(NC(=O)c2cc(NC(=O)CCCCCCCCCCC(=O)Nc3cc(C(=O)Nc4cc(C(=O)NCCC(=N)N)n(C)c4)n(C)c3)cn2C)cc1C(=O)NCCC(=N)N
Result :: active

Query :: // return assay outcome for CN1C=CC(C(O)(c2ccccc2)c2ccccc2)CC1 (stereo not drawn)
Result :: inactive

Query :: Call for entry Cc1occc1C(=S)Nc1ccc(Cl)c(C(=O)OCC(C)C)c1 :
Result :: inactive

Query :: Per the assay record, what outcome was assigned to CC(=O)c1cc(-c2ccc(C)cc2)nc2c(C)cc(C)cc12 ?
Result :: active

Query :: Status in this test for CN(C)CCSc1cc(-c2ccccc2)c2ccccc2n1 ?
Result :: active

Query :: # lookup: test call for O=Nc1ccccc1N=O
Result :: active

Query :: Recorded test outcome, item CCOC(=O)C(=CNC(=S)Nc1c(CC)cccc1C(C)(C)C)C(=O)OCC
Result :: active

Query :: Query: recorded result category for CCCCCCCCCCCCCCCCNc1ccn(C2CC(OP(=O)(O)OCC3OC(n4cc(CC)c(=O)[nH]c4=O)CC3O)C(CO)O2)c(=O)n1 (stereo not drawn) in this test
Result :: inactive

Query :: Dear colleague, could you share the recorded outcome for COc1cc(C2c3cc4c(cc3[C@@H](Nc3ccc5c(c3)OCCO5)C3COC(=O)[C@H]23)OCO4)cc(OC)c1O (stereo partly drawn) when you have a moment?
Result :: active

Query :: How was Nc1c(F)cccc1F classified in this test?
Result :: inactive

Query :: How was C1CCC(OC2CCCCO2)OC1 (stereo not drawn) classified in this test?
Result :: inactive

Query :: State the result this test recorded for CCOC(=O)CC(NC(=O)c1[nH]cnc1/N=N/N(C)C)C(=O)OCC (stereo not drawn) .
Result :: active

Query :: // return assay outcome for C=CCNC(=O)NC1=CSC2=NC(=O)C3(NN12)c1ccccc1-c1ccccc13
Result :: active

Query :: Query: recorded result category for COc1ccc(/C=C2\CCC(CN(C)C)C2=O)cc1 (stereo not drawn) in this test
Result :: active

Query :: Which outcome was entered for the compound O=C(C(Oc1ccc(Cl)cc1)Oc1ccc(Cl)cc1)N(O)c1ccccc1OCc1ccccc1 in this test?
Result :: active

Query :: Tell me the recorded outcome of this test for C1=C(c2ccccc2)C(c2ccc(OCCN3CCCCC3)cc2)Oc2ccccc21 (stereo not drawn) .
Result :: active

Query :: Test call for this compound, please: CSC(SC)(C(=O)O)c1cc(-c2c(Cl)cccc2Cl)no1
Result :: active

Query :: What call does the record list for CN(C)CCCNc1ccc2c(=O)n(CCN(C)C)c(=O)n3c4ccccc4c(=O)c1c23 ?
Result :: inactive

Query :: Look up the recorded call for C=CCOc1ccc2c(c1)CC=C1[C@@H]2CC[C@]2(C)C(=N\O)/C(=N/O)C[C@@H]12 in this test.
Result :: active

Query :: Hi, do you know how CC1=C(C(=O)Nc2cc(O)ccc2O)C(c2cccc([N+](=O)[O-])c2)C(C(=O)Nc2cc(O)ccc2O)=C(C)N1 came out in this test?
Result :: inactive

Query :: For CCOc1ccc2c(c1)nc1ccccc1[n+]2CC , which call appears in the assay record?
Result :: inactive

Query :: Tell me the assay call for O=[N+]([O-])c1ccc2c(N=Nc3ccc4ccccc4c3O)c(O)cc(S(=O)(=O)O)c2c1 please.
Result :: active

Query :: Check the results log: what was the call for CCOC(=O)NC(NC(=O)OCC)C(=O)Nc1cccc2c(OC(=O)C(NC(=O)OCC)NC(=O)OCC)c(N=Nc3ccc(S(=O)(=O)Nc4nccs4)cc3)cc(N=Nc3ccc(S(=O)(=O)Nc4nccs4)cc3)c12 (tested in a mixture with another compound) ?
Result :: active

Query :: Hi, do you know how Clc1cc(Cl)c(NN=C(c2ccccc2)c2ccccc2)c(Cl)c1 came out in this test?
Result :: active

Query :: Record request — test call for N#C/C=C(\c1ccccc1)c1c[nH]c2ccccc12
Result :: active

Query :: Kindly provide the recorded test outcome for the following compound: Nc1ccc(-c2nc3ccccc3s2)cc1Br
Result :: inactive

Query :: Dear all, I need the recorded test outcome for CN(C)c1nc(=NCc2ccccc2)ss1 , thank you.
Result :: inactive

Query :: Could you kindly confirm the outcome this assay logged for CC(C)=Cc1cc2c(cc1O)CCC1C2CC[C@@]2(C)C1CC[C@@H]2O (stereo partly drawn) ?
Result :: inactive

Query :: // outcome(item) with item = NC(=S)N/N=C/c1ccc(Cl)s1
Result :: active

Query :: Test call, this compound: CC(N)C(O)c1ccc2ccc3ccccc3c2c1 (stereo not drawn)
Result :: inactive

Query :: What is the recorded call for this compound in the test? O=C1c2c(O)ccc(O)c2C(=O)c2c(O)ccc(O)c21
Result :: inactive

Query :: Assay outcome for CC1=NC(C)=C(/C(C)=N/NC(=O)c2ccccc2O)C(C)/C1=C(/C)NNC(=O)c1ccccc1O (stereo not drawn) : what was it?
Result :: active

Query :: Write down the call the test reported for this compound. Item: O=Nc1c(O)ccc2ccccc12.[Fe].[Na+]
Result :: active

Query :: Hi, sorry to bother you, what did the test record for C/C(=C/c1ccccc1)C(=O)C1C(c2ccccc2)CC(O)C(C)C1c1ccccc1 (stereo not drawn) ?
Result :: active

These measurements were taken from PubChem BioAssay (NCI).
